# Tested on: PC-3
# methodNotes: Cytotoxicity against human PC3 cell line
# Format: functional, cell-based
# condition: Homo sapiens, PC-3; read-out: IC50
resultType: IC50 (µM)
// units = µM; emit number, no label

Note down IC50 recorded for COc1ccc(/C=C/C(=O)/C=C/c2ccc(OC)cc2OC)c(OC)c1
18.7

Note down IC50 recorded for CCOC(=O)CC\C(C(=O)/C=C/C=C/c1ccc(O)c(OC)c1)=C(O)/C=C/C=C/c1ccc(O)c(OC)c1
6.4

Note down IC50 recorded for CCOC(=O)CCC(F)(C(=O)/C=C/c1ccc(O)c(OC)c1)C(=O)/C=C/c1ccc(O)c(OC)c1
9.8

Note down IC50 recorded for CCOC(=O)CC/C(C(=O)/C=C/c1ccc(OC2CCCCO2)c(OC)c1)=C(O)\C=C\c1ccc(OC2CCCCO2)c(OC)c1 (centres undefined)
12.3

Note down IC50 recorded for COc1ccc(/C=C/C(O)=C/C(=O)/C=C/c2ccc(OC)c(OC)c2OC)cc1OC
9.1

Note down IC50 recorded for COc1ccc(/C=C/C(O)=C/C(C)=O)c(OC)c1OC
7.8

Note down IC50 recorded for COc1ccc(/C=C/C(=O)/C=C(O)/C=C/c2ccc(OC)c(OC)c2OC)c(OC)c1OC
8.1

Note down IC50 recorded for COc1cc(OC)c(OC)cc1/C=C/C(=O)/C=C(O)/C=C/c1cc(OC)c(OC)cc1OC
2.4

Note down IC50 recorded for COc1cc(/C=C/C(=O)/C=C(O)/C=C/c2ccc(OC)c(OC)c2)ccc1O
6

###

# Tested on: PC-3
# methodNotes: Cytotoxicity against human PC3 cell line
# Type: functional, cell-based
# condition: Homo sapiens, PC-3; read-out: IC50
resultType: IC50 (µM)
// units = µM; emit number, no label

Note down IC50 recorded for COc1ccc(/C=C/C(=O)C(C)C(=O)/C=C/c2ccc(OC)c(OC)c2)cc1OC
3.5

Note down IC50 recorded for COc1cc(/C=C/C(O)=C/C(C)=O)ccc1O
8

Note down IC50 recorded for COc1cc(/C=C/C(O)=C/C(=O)/C=C/c2cccs2)ccc1O
7.7

Note down IC50 recorded for COc1ccc(/C=C/C(O)=C/C(C)=O)c(OC)c1
12.3

Note down IC50 recorded for CCO/C(O)=C/C=C(C(=O)/C=C/c1ccc(OC)c(OC)c1)C(=O)/C=C/c1ccc(OC)c(OC)c1
1

###

# Tested on: PC-3
# methodNotes: Cytotoxicity against human PC3 cell line
# Type: functional, cell-based
# condition: Homo sapiens, PC-3; read-out: IC50
resultType: pIC50
Bear in mind: pIC50 is minus log10 of a mol/L concentration; give just that figure.

Find pIC50 for COc1ccc(/C=C/C(=O)CC(O)/C=C/c2ccc(OC)c(OC)c2)cc1OC (centres undefined) on PC-3 and write it down.
4.74

Find pIC50 for CCOC(=O)CC/C(C(=O)/C=C/c1ccc(O)c(OC)c1)=C(O)\C=C\c1ccc(O)c(OC)c1 on PC-3 and write it down.
5.29

Find pIC50 for CCO/C(O)=C/C=C(C(=O)/C=C/c1ccc(OC2CCCCO2)c(OC)c1)C(=O)/C=C/c1ccc(OC2CCCCO2)c(OC)c1 (centres undefined) on PC-3 and write it down.
5.51

Find pIC50 for COc1ccc(/C=C/C(=O)C(/C=C/C#N)=C(O)/C=C/c2ccc(OC)c(OC)c2)cc1OC on PC-3 and write it down.
6.15

Find pIC50 for COc1ccc(/C=C/C(=O)C(/C=C/CO)=C(O)/C=C/c2ccc(OC)c(OC)c2)cc1OC on PC-3 and write it down.
5.89

Find pIC50 for COc1ccc(/C=C/C(=O)/C=C(O)/C=C/c2ccc(OC)c(OC)c2)cc1OC on PC-3 and write it down.
5.96

Find pIC50 for COc1cc(/C=C/C(=O)CC(=O)/C=C/c2ccc(O)c(OC)c2)ccc1O on PC-3 and write it down.
5.11

Find pIC50 for COc1cc(/C=C/C(=O)/C(C(C)=O)=C(O)/C=C/c2ccc(O)c(OC)c2)ccc1O on PC-3 and write it down.
4.63

Find pIC50 for COc1cc(/C=C/C(=O)/C=C/c2ccc(O)c(OC)c2)ccc1O on PC-3 and write it down.
5.62

Find pIC50 for COc1ccc(/C=C/C(O)=C/C(=O)/C=C/c2ccc(OC)c(OC)c2)cc1O on PC-3 and write it down.
5.26

Find pIC50 for CCOC(=O)CC/C(C(=O)/C=C/c1ccc(OC)c(OC)c1)=C(O)\C=C\c1ccc(O)c(OC)c1 on PC-3 and write it down.
5.20

Find pIC50 for COc1cc(/C=C/C(O)=C/C(=O)/C=C/c2ccc[nH]2)ccc1O on PC-3 and write it down.
4.81

Find pIC50 for COc1cc(OC)c(OC)cc1/C=C/C(O)=C/C(C)=O on PC-3 and write it down.
4.98

Find pIC50 for COc1cc(/C=C/C(O)=C/C(=O)/C=C/c2ccc(CO)o2)ccc1O on PC-3 and write it down.
5.05

Find pIC50 for CCO/C(O)=C/C=C(C(=O)/C=C/c1ccc(O)c(OC)c1)C(=O)/C=C/c1ccc(O)c(OC)c1 on PC-3 and write it down.
4.93

Find pIC50 for COc1cc(/C=C/C=C/C(=O)/C=C(O)/C=C/C=C/c2ccc(O)c(OC)c2)ccc1O on PC-3 and write it down.
4.97

Find pIC50 for COc1ccc(/C=C/C(O)=C/C(C)=O)cc1OC on PC-3 and write it down.
5.15

Find pIC50 for COc1ccc(/C=C/C(=O)/C=C(O)/C=C/c2ccc(OC)c(O)c2)cc1O on PC-3 and write it down.
5.07

Find pIC50 for COc1ccc(/C=C/C(=O)C(C)(F)C(=O)/C=C/c2ccc(OC)c(OC)c2)cc1OC on PC-3 and write it down.
5.34

Find pIC50 for CCOC(=O)CC/C(C(C)=O)=C(O)\C=C\c1ccc(O)c(OC)c1 on PC-3 and write it down.
4.36

Find pIC50 for CCOc1ccc(/C=C/C(=O)/C=C(O)/C=C/c2ccc(OCC)c(OC)c2)cc1OC on PC-3 and write it down.
4.69

Find pIC50 for COc1ccc(/C=C/C(O)=C/C(C)=O)cc1O on PC-3 and write it down.
5.21

Find pIC50 for CCOC(=O)CCC(F)(C(=O)/C=C/c1ccc(OC2CCCCO2)c(OC)c1)C(=O)/C=C/c1ccc(OC2CCCCO2)c(OC)c1 (centres undefined) on PC-3 and write it down.
5.20

Find pIC50 for CCNC(=O)/C=C/C(C(=O)/C=C/c1ccc(OC)c(OC)c1)=C(O)\C=C\c1ccc(OC)c(OC)c1 on PC-3 and write it down.
5.92

Find pIC50 for COc1ccc(/C=C/C(=O)/C=C/c2ccc(OC)c(OC)c2)cc1OC on PC-3 and write it down.
5.42

Find pIC50 for COc1cc(OC)c(OC)cc1/C=C/C(=O)/C=C(O)/C=C/c1ccc(OC)c(OC)c1 on PC-3 and write it down.
5.09

###

# Test system: PC-3
# methodNotes: Cytotoxicity against human PC3 cell line
# Format: functional, cell-based
# condition: Homo sapiens, PC-3; read-out: IC50
pIC50: −log10 of the molar value.
resultType: pIC50

Note down pIC50 recorded for COc1cc(/C=C/C(=O)/C=C(O)/C=C/c2ccc(OCC=C(C)C)c(OC)c2)ccc1OCC=C(C)C
< 4.70

Note down pIC50 recorded for COc1ccc(/C=C/C(=O)NC(=O)/C=C/c2ccc(OC)c(OC)c2)cc1OC
< 5.00

Note down pIC50 recorded for COc1ccc(/C=C/C(=O)/C=C(O)/C=C/c2ccc(OC)c(C)c2)cc1C
< 4.56

// data source = ChEMBL document CHEMBL1138035
